Source of measurements: PubChem BioAssay (EPA / NIEHS)

Read-out: CYP2E1 (gene 1571)
Assay: LTEA_HepaRG_CYP2E1: Life Technologies and Expression Analysis (LTEA) Assay for CYP2E1 using HepaRG (AID 2283485)
Details: mRNA level, 48 h; actives raise or lower the signal
The source made the active and inactive calls. How the source made its calls: active means hit-call score of the fitted dose curve at least 0.9, where 1 is the maximum; inactive means score below 0.9.
Write down one outcome, taken from true (1) (active), false (0) (inactive)

Consider the worked cases shown below.
compound | assignedClass
O=C1CCC(N2C(=O)c3ccccc3C2=O)C(=O)N1 (configuration not stated) | false (0)
CC(C)=CCCC(C)=CC=O | false (0)
Nc1nc2ncc(CNc3ccc(C(=O)N[C@@H](CCC(=O)O)C(=O)O)cc3)nc2c(=O)[nH]1 | false (0)

Query :: Please indicate how the test categorized CCCCCCc1ccc(O)cc1O .
Result :: false (0)
